# System: HCT-116 colon
# protocol-details: NCI tumour cell line growth inhibition, 48 h; in the data active means GI50 below about 0.43 µM; inactive means the rest
Outcomes: 1 (active), 0 (inactive)

molecule	tested-target	class-assignment
CCN(CC)C(=S)SSC(=S)N(CC)CC	HCT-116 colon	0
Nc1ncccc1-c1nc2ccc(-c3ccccc3)nc2n1-c1ccc(C2(N)CCC2)cc1	HCT-116 colon	0
O=S(=O)(NC1=NCCN1C(=S)SN1CCn2c1nsc2=S)c1cccc(OC(F)(F)F)c1	HCT-116 colon	0
C=C1C(=O)O[C@H]2[C@H]1CC/C(CNC(=O)/C=C/c1ccccc1)=C\CC[C@@]1(C)O[C@@H]21	HCT-116 colon	0
CC/C=C\C/C=C/C=C1/C(=O)C=C[C@@H]1C/C=C\CCCC(=O)OC	HCT-116 colon	0
OCc1ccc(N2CCCC2)cc1Cl	HCT-116 colon	0
COc1ccc2c(c1)/C(=C\c1c[nH]c3ccc(OC)cc13)C(=O)N2	HCT-116 colon	0
CC(=O)[CH-]C(=O)Nc1ccccc1.CC(=O)[CH-]C(=O)Nc1ccccc1.CC[O-].CC[O-].[Ti+4]	HCT-116 colon	0
CCN(CC)CCCC(C)Nc1c(-c2ccccc2)cnc2cc(Cl)ccc12 (stereo not drawn)	HCT-116 colon	0
CN1CCN(c2cc3nc4ccccc4n(-c4ccc(Cl)cc4)c-3cc2=N)CC1	HCT-116 colon	0
CC(=O)OC(C)C(OC(C)=O)C(OC(C)=O)C(/C=C/C1CC=CC(=O)O1)OC(C)=O (stereo not drawn)	HCT-116 colon	0
CCSc1nc(N)c(C#N)c(-c2ccco2)c1C#N	HCT-116 colon	0
Cc1ccc(Sc2oc(-c3ccc(C)cc3)nc2[P+](c2ccccc2)(c2ccccc2)c2ccccc2)cc1	HCT-116 colon	1

---

# System: MDA-MB-231 breast
# protocol-details: NCI tumour cell line growth inhibition, 48 h

compound	sign	TGI / µM
O=C1/C(=C/c2cccc(Br)c2)COc2ccc(O)c(O)c21	=	3.35
COc1cc2c(cc1-c1coc3cc(OCC=C(C)C)ccc3c1=O)OCO2	=	65.6
O=S(=O)(NC1=NCCN1C(=S)SN1CCn2c1nsc2=S)c1cccc(OC(F)(F)F)c1	=	35.4
O=C1CCC2(O)C3Cc4ccc(Oc5nnnn5-c5ccccc5)c5c4C2(CCN3CC2CC2)C1O5 (stereo not given)	>	100
CNC(=S)N/N=C(\C)c1nc2ncccc2[nH]1	>	100

---

# Test system: HCC-2998 colon
# protocol-details: NCI tumour cell line growth inhibition, 48 h; in the data active means GI50 below about 0.43 µM; inactive means the rest
Outcomes: 1 = active, 0 = inactive

molecule	tested-target	class-assignment
O=c1cccc(C#CC#CCCCO)o1	HCC-2998 colon	0
CCOC(=O)C1=C(C)N2C(=NC3=C(CCC/C3=C\c3ccc(Cl)cc3)C2c2ccc(Cl)cc2)S1 (stereo unspecified)	HCC-2998 colon	0
C=C1CC[C@@H]2[C@](C)(COC(C)=O)[C@H](OC(C)=O)CC[C@@]2(C)[C@@H]1CC(Nc1ccc(S(=O)(=O)Nc2nccs2)cc1)C1=CCOC1=O (stereo partly specified)	HCC-2998 colon	0
CC(=O)[CH-]C(=O)Nc1ccccc1.CC(=O)[CH-]C(=O)Nc1ccccc1.CC[O-].CC[O-].[Ti+4]	HCC-2998 colon	0
COc1cc(/C=C/[N+](=O)[O-])cc(OC)c1OC	HCC-2998 colon	0
CCN(C(=O)CN1CCN(c2cc3c(cc2F)c(=O)c(C(=O)O)cn3CC)CC1)c1nc(-c2ccccc2)cs1	HCC-2998 colon	1
NNc1c2ccccc2nc2ccccc12	HCC-2998 colon	0
COc1cccc2c1[C@H]1CO[C@H]3C4C[C@H](C(=O)O)C([C@@H](C2)N13)N4C (stereo partly specified)	HCC-2998 colon	0
Oc1c(Cl)cc(Cl)c2cccnc12	HCC-2998 colon	0
O=S(=O)(NC1=NCCN1C(=S)SN1CCn2c1nsc2=S)c1cccc(OC(F)(F)F)c1	HCC-2998 colon	0
O=c1c(O)cccn1CCCN(CCCn1cccc(O)c1=O)CCn1cccc(O)c1=O	HCC-2998 colon	0
